Source: BigSolDB 2.1

conditions: in toluene, 290.15 K
measurement_kind: solubility (mole fraction)
Give a plain numeric answer without units written out.

Fill blank: measured solubility (mole fraction) of the compound `Brc1sc(Br)c(Br)c1Br` is ____.
0.04

---

details: in chloroform, 297.15 K
measurement_kind: solubility (mole fraction)
Give a plain numeric answer without units written out.

Fill blank: measured solubility (mole fraction) of the compound `Brc1sc(Br)c(Br)c1Br` is ____.
0.039

---

details: in ethyl acetate, 302.15 K
measurement_kind: solubility (mole fraction)
Give a plain numeric answer without units written out.

Fill blank: measured solubility (mole fraction) of the compound `Brc1sc(Br)c(Br)c1Br` is ____.
0.0183

---

conditions: in THF, 286.15 K
measurement_kind: solubility (mole fraction)
Give a plain numeric answer without units written out.

Fill blank: measured solubility (mole fraction) of the molecule `Brc1sc(Br)c(Br)c1Br` is ____.
0.0469

---

settings: in ethanol, 281.25 K
measurement_kind: solubility (mole fraction)
Give a plain numeric answer without units written out.

Fill blank: measured solubility (mole fraction) of the compound `Brc1sc(Br)c(Br)c1Br` is ____.
0.00149

---

conditions: in ethanol, 286.15 K
measurement_kind: solubility (mole fraction)
Give a plain numeric answer without units written out.

Fill blank: measured solubility (mole fraction) of the molecule `Brc1sc(Br)c(Br)c1Br` is ____.
0.00165

---

conditions: in toluene, 297.15 K
measurement_kind: solubility (mole fraction)

Fill blank: measured solubility (mole fraction) of the molecule `Brc1sc(Br)c(Br)c1Br` is ____.
0.0486

---

details: in toluene, 293.15 K
measurement_kind: solubility (mole fraction)
Give a plain numeric answer without units written out.

Fill blank: measured solubility (mole fraction) of the compound `Brc1sc(Br)c(Br)c1Br` is ____.
0.044

---

details: in ethyl formate, 290.15 K
measurement_kind: solubility (mole fraction)
Give a plain numeric answer without units written out.

Fill blank: measured solubility (mole fraction) of the compound `Brc1sc(Br)c(Br)c1Br` is ____.
0.00632

---

details: in n-propanol, 290.15 K
measurement_kind: solubility (mole fraction)
Give a plain numeric answer without units written out.

Fill blank: measured solubility (mole fraction) of the compound `Brc1sc(Br)c(Br)c1Br` is ____.
0.00287

---

conditions: in ethyl acetate, 286.15 K
measurement_kind: solubility (mole fraction)
Give a plain numeric answer without units written out.

Fill blank: measured solubility (mole fraction) of the molecule `Brc1sc(Br)c(Br)c1Br` is ____.
0.0109

---

conditions: in n-propanol, 307.15 K
measurement_kind: solubility (mole fraction)
Give a plain numeric answer without units written out.

Fill blank: measured solubility (mole fraction) of the compound `Brc1sc(Br)c(Br)c1Br` is ____.
0.00514

---

conditions: in methanol, 307.15 K
measurement_kind: solubility (mole fraction)
Give a plain numeric answer without units written out.

Fill blank: measured solubility (mole fraction) of the compound `Brc1sc(Br)c(Br)c1Br` is ____.
0.000896

---

settings: in n-butanol, 320.15 K
measurement_kind: solubility (mole fraction)
Give a plain numeric answer without units written out.

Fill blank: measured solubility (mole fraction) of the molecule `Brc1sc(Br)c(Br)c1Br` is ____.
0.0118

---

settings: in ethyl formate, 311.65 K
measurement_kind: solubility (mole fraction)
Give a plain numeric answer without units written out.

Fill blank: measured solubility (mole fraction) of the molecule `Brc1sc(Br)c(Br)c1Br` is ____.
0.0138
